Each record here notes measured % positive.
- target of assay: EGFRvIII expressed on cells (F98-npEGFRvIII, NCI-H522-EGFRvIII, U87-KO-EGFRvIII) (human)
- experiment summary: flow cytometry, F98-EGFRvIII cells; 2nd Ab only 2.3
All answers are understood in %, so give the number only.

binder	% positive, %
14C11 (antibody, V domains shown) VH: QVTLKESGPVLVKPTETLTLTCTVSGFSLNNARMGVSWIRQPPGKALEWFAHIFSTDEKSFRTSLRSRLTLSKDTSKSQVVLTMTNMDPVDTATYYCARDSSNYEGYFDYWGQGILVTVSS VL: EIVMTQSPATLSVSPGERATLSCRASQSVSNNLAWYQQKPGQAPRLLIYGASTRATGVPARFSGSDSGTEFSLTISSLQSEDFAVYFCQQYKDWPFTFGPGTKVEIK	98.2
21E7 (antibody, V domains shown) VH: QVTLEESGPVLVKPTETLTLTCTVSGFSLSNARMGVSWIRQPPGKAPEWFAHIFSTDEKSLRLSLRSRLTLSKDTSKSQVVLTMTNMDPVDTATYYCARDSSNYEGYFDYWGQGTLVTVSS VL: DVVLTQSPATLSVSPGERATLSCRASQSVNSNLAWYQQNPGQAPRLLIFGSSTRATGIPASFSGSGSGTEFTLTINSLQSEHSAVYYCQQYNDWPFTFGPGTKVDIK	98.5

Okay, next one:
Given the binder 11F10 (antibody, V domains shown) VH: QVTLKESGPVLVKPIETLTLTCTVCGFSLSNPRMGVSWIRQPPGKALEWLGHIFSSDEKSYRLFLRSRLSISKDTSKSQVVLTMTNMDPVDTATYYCARDSSDYEGYFDYWGQGTLVTVSS VL: EIVMTQSPATLSVSPGERTTLSCRASQSVGSNLAWYQQKPGQAPRLLIYGASTRASGVPARFSGSGSGTEFTLTISSLQSEDFAVYSCQEYNNWPFTFGQGTKVEIK , what is its reported % positive?
98
